assay: qHTS assay to identify small molecule HDAC inhibitors (AID 1259364); conditions: HCT-116 HDAC-Glo I/II luminescence, 2 h; series mostly up to 92.4 µM;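 note: wild-type HCT-116 cells with endogenous class I/II HDAC activity; nearly all actives have a fitted effect of over 45% in size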
Records with an inconclusive call do not appear. Active and inactive are the calls of the source. Calls come from the whole dose curve; as a rule, active = well fitted inhibition curve with a large enough effect in the repeat runs; inconclusive = weak or mixed curves; inactive = flat fitted curve, though single readings scatter.
Classes used: label 1 (active), label 0 (inactive)

> print(dat)
                                    molecule  answer.label
 1                   CCN(CC)C(=O)N1CCN(C)CC1       label 0
 2                CN=C(N)NC(=O)Nc1c(C)cccc1C       label 0
 3          O=C(O)CCC(=O)c1ccc(-c2ccccc2)cc1       label 1
 4  COc1ccc2nc(S(=O)Cc3ncc(C)c(OC)c3C)[nH]c2c1 (stereo not given)       label 0
 5  CCCc1nc2c(C)cc(-c3nc4ccccc4n3C)cc2n1Cc1ccc(-c2ccccc2C(=O)O)cc1       label 0
 6                                  O=CNNC=O       label 0
 7                  CCCCCCCCCCCCCOS(=O)(=O)O       label 0
 8                                  C1CCCCC1       label 0
 9                        [Cl][Nd]([Cl])[Cl]       label 0
10                     c1ccc(CCCc2ccncc2)cc1       label 1
11                     CCC(=O)OCc1ccc(OC)cc1       label 0
12                    O=C(O)CNC(=O)c1ccccc1I       label 0
13                             CCC(CO)(CO)CO       label 0
14                     CCCCOCCOC(=O)c1cccnc1       label 0
15                       Cc1ccccc1S(N)(=O)=O       label 0
16  CCOC(=O)Oc1ccc(CCNC(=O)[C@H](CCSC)NC(C)=O)cc1OC(=O)OCC       label 0
17      COc1cc(NS(=O)(=O)c2ccc(N)cc2)nc(C)n1       label 0
18                 O=C(O)/C=C/c1ccc(O)c(O)c1       label 0
19  O=C(/C=C/c1ccc([N+](=O)[O-])cc1)c1ccccc1       label 1
20                O=[N+]([O-])c1ccc2ncccc2c1       label 0
21                 O=S(=O)(Cl)c1c(Cl)cccc1Cl       label 0
22  COC(CC(C)CCCC(C)(C)O)OC (stereo not given)       label 0
23                        CNc1c2c(nn1C)CCCC2       label 0
24  COc1ccc(-n2nc(C(F)F)cc2-c2ccc(S(C)=O)cc2)cc1 (stereo not given)       label 0
25  CCCCCCCCCCCC(=O)OCC(O)CO (stereo not given)       label 0
26         CCOC(=O)c1ccc(NC(=O)CN2CCCCC2)cc1       label 0
27                           CCC(C)(C)C(=O)O       label 0
28  Cc1ccc2c(c1[N+](=O)[O-])C(=O)c1ccccc1C2=O       label 0
29         CC1CCc2nccnc21 (stereo not given)       label 0
30  Cc1oc(=O)oc1COC(=O)[C@@H]1N2C(=O)[C@@H](NC(=O)[C@H](N)c3ccccc3)[C@H]2SC1(C)C       label 0
31          O=C1c2ccccc2C(=O)c2c(O)ccc(O)c21       label 0
32  CNS(=O)(=O)c1cc(C(=O)N2CCC(CCN3C4CCC3CC(n3c(C)nc5ccccc53)C4)(c3cccc(F)c3)CC2)c(Cl)cc1F (stereo not given)       label 0
33     CC1CCC(C(C)CS)CC1S (stereo not given)       label 0
34                              O=S(=O)(O)CO       label 0
35                         CCCCCCOC(=O)CCCCC       label 0
36        Cc1ccc(N(CC2=NCCN2)c2cccc(O)c2)cc1       label 0
37  CCCCCCC(O)CCCCCCCCCCC(=O)OC (stereo not given)       label 0
38                       O=C(c1ccccc1)C1CCC1       label 0
39  Cc1cn([C@H]2C[C@H](F)[C@@H](CO)O2)c(=O)[nH]c1=O       label 0
40  O=c1[nH][nH]c(=O)c2cc([N+](=O)[O-])ccc12       label 0
41           COc1ccc(C2C(=O)c3ccccc3C2=O)cc1       label 1
42      COC(=O)Nc1nc2ccc(C(=O)C3CC3)cc2[nH]1       label 1
43  COc1cc(NCc2ccc3nc(N)nc(N)c3c2C)cc(OC)c1OC       label 0
44                                 COC(OC)OC       label 0
45                                CC(=O)NCCO       label 0
46       Nc1ccn([C@H]2CS[C@@H](CO)O2)c(=O)n1       label 0
47                   CCCCCCCCCCCCCCCC(=O)OCC       label 0
48  COc1ccc(-c2cc(C(F)F)nn2-c2ccc(S(N)(=O)=O)cc2)cc1F       label 0
49                           CC(C)N=C=NC(C)C       label 0
50  COC(=O)CC(C(C)=O)C(=O)OC (stereo not given)       label 0
51  Cc1cc(CCCOc2c(C)cc(-c3noc(C(F)(F)F)n3)cc2C)on1       label 0
52  CC(=O)OCC1=C(C(=O)O)N2C(=O)[C@@H](NC(=O)CSc3ccncc3)[C@H]2SC1       label 0
53  O=C(CCS)OCC(COC(=O)CCS)(COC(=O)CCS)COC(=O)CCS       label 0
54                 Nc1ccc(N=Nc2ccc(N)cc2)cc1       label 1
55  CCCCC(CC)COS(=O)(=O)O (stereo not given)       label 0
